- Tested target: 5-HT(2A) receptor (Homo sapiens)
- Test method notes: cell-based
- Assay type: cell-based
- Parameters: expressed in transfected cells
- Assay conditions: read-out: 5-HT2A EC50 ± SEM
Test readout: EC50

Q: Write down measured EC50 (5-HT(2A) receptor (Homo sapiens)) for this compound. Cl.NC[C@@H]1C[C@H]1c1cc(F)ccc1OCC1CC1 (racemic) [Compound 12, Hydrochloride]
Result: 761 nM

----------
- Tested target: UniProt P08684
- Sequence (P08684 whole entry): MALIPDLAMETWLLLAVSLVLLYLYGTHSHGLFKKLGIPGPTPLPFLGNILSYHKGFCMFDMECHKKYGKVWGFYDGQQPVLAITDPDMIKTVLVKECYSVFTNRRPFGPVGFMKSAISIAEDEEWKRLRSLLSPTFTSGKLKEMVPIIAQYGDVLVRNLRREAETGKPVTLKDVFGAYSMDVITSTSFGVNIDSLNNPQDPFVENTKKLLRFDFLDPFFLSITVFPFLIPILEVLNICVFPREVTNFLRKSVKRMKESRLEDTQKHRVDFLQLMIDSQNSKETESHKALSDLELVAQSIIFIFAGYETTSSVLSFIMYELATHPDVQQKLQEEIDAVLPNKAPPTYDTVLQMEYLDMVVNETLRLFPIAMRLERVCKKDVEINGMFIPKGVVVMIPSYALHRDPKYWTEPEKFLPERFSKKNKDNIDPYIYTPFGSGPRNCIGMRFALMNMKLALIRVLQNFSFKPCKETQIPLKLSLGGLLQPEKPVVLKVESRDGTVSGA
- Test method notes: Recombinant CYP inhibition, CYP3A4
- Format: in vitro ADME
- Assay conditions: recombinant CYP3A4, probe midazolam, substrate midazolam, recombinant enzyme, read-out: % Inhibition at 10 μM, CYP 3A4
Where a name gives a salt, the structure may show the parent alone.
Test readout: inhibition at 5 min, 10 µM

Q: Item NC[C@H]1C[C@@H]1c1cc(F)ccc1OCC1CC1 [(+)-12, Hydrochloride] : provide inhibition at 5 min, 10 µM
Result: 21.7%

----------
- Tested target: human 5-HT(2C) (INI) receptor (Homo sapiens)
- Construct: expressed in transfected cells
- Sequence (P28335 33-458): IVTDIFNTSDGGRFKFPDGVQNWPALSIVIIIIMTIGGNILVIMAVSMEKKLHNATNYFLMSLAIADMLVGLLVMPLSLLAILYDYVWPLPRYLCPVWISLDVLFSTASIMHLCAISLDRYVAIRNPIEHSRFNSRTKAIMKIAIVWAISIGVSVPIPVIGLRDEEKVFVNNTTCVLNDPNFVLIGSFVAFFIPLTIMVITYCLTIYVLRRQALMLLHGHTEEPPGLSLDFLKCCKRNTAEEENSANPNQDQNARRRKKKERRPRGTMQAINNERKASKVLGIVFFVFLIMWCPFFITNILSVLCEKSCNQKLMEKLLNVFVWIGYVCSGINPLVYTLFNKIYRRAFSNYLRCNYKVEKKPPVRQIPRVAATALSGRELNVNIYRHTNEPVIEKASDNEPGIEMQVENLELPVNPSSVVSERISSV
- Test method notes: Calcium flux assay, stably transfected HEK-293 cells, 5-HT2C
- Format: cell-based
- Assay conditions: 5-HT2C EC50 ± SEM, Table 2, first section
Test readout: pEC50
Give bare numbers, as −log10 of the molar value.

Q: Item Cl.NC[C@@H]1C[C@H]1c1cc(O)ccc1OCC1CC1 (racemic) [Compound 18, Hydrochloride] : provide pEC50
Result: 7.72

----------
- Tested target: human 5-HT(2C) (INI) receptor (Homo sapiens, UniProt P28335)
- Construct: expressed in transfected cells
- Test method notes: Calcium flux assay, stably transfected HEK-293 cells, 5-HT2C
- Assay type: cell-based
- Assay conditions: EC50 at the 5-HT(2C) receptor, running text b178, functional assays
Test readout: pEC50
Answers are plain numbers, as −log10 of the molar value.

Q: Write down measured pEC50 (human 5-HT(2C) (INI) receptor (Homo sapiens, UniProt P28335)) for this compound. Cl.NC[C@@H]1C[C@H]1c1cc(F)ccc1OCC1CC1 (racemic) [Compound 12, Hydrochloride]
Result: 6.60

----------
- Tested target: UniProt:P28223
- Test method notes: cell-based
- Assay type: cell-based
- Set-up: expressed in transfected cells
- Assay conditions: 5-HT2A EC50 ± SEM, Table 2, second section (second screening campaign); NA: Emax ≦ 12%
Counter-ions that a name gives are not always drawn.
Test readout: EC50 (nM)
Give bare numbers, in nM.

Q: Item NC[C@H]1C[C@@H]1c1cc(O)ccc1OCC1CC1 [(+)-18, Hydrochloride] : provide EC50
Result: 372

----------
- Tested target: UniProt P41595
- Sequence (P41595 whole entry): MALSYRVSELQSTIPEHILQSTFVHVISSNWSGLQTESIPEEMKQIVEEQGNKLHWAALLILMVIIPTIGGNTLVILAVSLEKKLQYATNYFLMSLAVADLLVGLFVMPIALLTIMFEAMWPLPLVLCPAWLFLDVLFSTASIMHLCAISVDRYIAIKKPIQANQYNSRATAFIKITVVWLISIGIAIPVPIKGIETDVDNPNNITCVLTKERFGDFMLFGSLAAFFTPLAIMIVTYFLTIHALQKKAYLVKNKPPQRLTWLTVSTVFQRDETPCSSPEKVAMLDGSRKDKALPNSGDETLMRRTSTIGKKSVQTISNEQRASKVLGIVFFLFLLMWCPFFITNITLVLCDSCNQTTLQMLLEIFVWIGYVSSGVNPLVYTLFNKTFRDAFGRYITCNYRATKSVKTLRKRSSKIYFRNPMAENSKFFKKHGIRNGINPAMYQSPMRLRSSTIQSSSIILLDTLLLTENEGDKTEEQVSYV
- Test method notes: Calcium flux assay, stably transfected HEK-293 cells, 5-HT2B
- Type: cell-based
- Design: expressed in transfected cells
- Assay conditions: Table 2, second section; percent of maximal activation by 5-HT; activation at 10 μM for compounds without EC50 value
Structures can show the parent of a compound that is named as a salt.
Answer each item with its documented 5-HT2B % Max ± SEM.

Solved cases below.
>  <Compound>
NC[C@H]1C[C@@H]1c1cc(O)ccc1OCC1CC1 [(+)-18, Hydrochloride]

>  <Test readout>
5-HT2B % Max ± SEM

>  <Value reported>
6% ±

$$$$
>  <Compound>
NC[C@H]1C[C@@H]1c1cc(F)ccc1OCC1CC1 [(+)-12, Hydrochloride]

>  <Test readout>
5-HT2B % Max ± SEM

>  <Value reported>
21% ±

$$$$
>  <Compound>
NCC1CC1c1cc(O)ccc1OCC1CC1 (single isomer, unassigned; (-)) [(−)-18]

>  <Test readout>
5-HT2B % Max ± SEM

>  <Value reported>
0% ±

$$$$

For the next question, use this compound.
Q: Item C[C@H]1CNCCc2ccc(Cl)cc21 [2 (Lorcaserin), Lorcaserin, reference compound] : provide 5-HT2B % Max ± SEM
Result: 86% ±

----------
- Tested target: 5-HT(2A) receptor (Homo sapiens, UniProt P28223)
- Sequence (P28223 whole entry): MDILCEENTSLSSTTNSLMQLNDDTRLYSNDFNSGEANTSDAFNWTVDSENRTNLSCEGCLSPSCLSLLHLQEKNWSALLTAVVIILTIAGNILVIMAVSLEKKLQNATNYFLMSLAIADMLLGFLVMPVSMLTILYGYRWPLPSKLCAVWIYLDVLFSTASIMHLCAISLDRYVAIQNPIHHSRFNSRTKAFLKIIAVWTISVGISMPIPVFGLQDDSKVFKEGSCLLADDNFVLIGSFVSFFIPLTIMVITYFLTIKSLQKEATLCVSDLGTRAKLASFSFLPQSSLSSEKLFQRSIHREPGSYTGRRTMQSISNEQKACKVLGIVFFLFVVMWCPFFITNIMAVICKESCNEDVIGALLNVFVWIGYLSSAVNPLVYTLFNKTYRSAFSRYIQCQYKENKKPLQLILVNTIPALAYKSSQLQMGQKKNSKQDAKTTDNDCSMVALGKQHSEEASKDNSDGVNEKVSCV
- Test method notes: cell-based
- Type: cell-based
- Set-up: expressed in transfected cells
- Assay conditions: Table 2, first section; percent of maximal activation by 5-HT; activation at 10 μM for compounds without EC50 value
Test readout: 5-HT2A % Max ± SEM

>  <Molecule>
Cl.NC[C@@H]1C[C@H]1c1cc(O)ccc1OCC1CC1 (racemic)

>  <Value reported>
7% ±

$$$$
>  <Molecule>
C[C@H]1CNCCc2ccc(Cl)cc21 [2 (Lorcaserin), Lorcaserin, reference compound]

>  <Value reported>
24% ±

$$$$
>  <Molecule>
Cl.NC[C@@H]1C[C@H]1c1cc(F)ccc1OCC1CC1 (racemic)

>  <Value reported>
11% ±

$$$$

For the next question, use this molecule.
Q: Write down measured 5-HT2A % Max ± SEM (5-HT(2A) receptor (Homo sapiens, UniProt P28223)) for this molecule. NCCc1c[nH]c2ccc(O)cc12 [Compound 5-HT, 5-Hydroxytryptamine, reference compound]
Result: 100%

----------
- Tested target: CYP2D6 (Homo sapiens, UniProt P10635)
- Sequence (P10635 whole entry): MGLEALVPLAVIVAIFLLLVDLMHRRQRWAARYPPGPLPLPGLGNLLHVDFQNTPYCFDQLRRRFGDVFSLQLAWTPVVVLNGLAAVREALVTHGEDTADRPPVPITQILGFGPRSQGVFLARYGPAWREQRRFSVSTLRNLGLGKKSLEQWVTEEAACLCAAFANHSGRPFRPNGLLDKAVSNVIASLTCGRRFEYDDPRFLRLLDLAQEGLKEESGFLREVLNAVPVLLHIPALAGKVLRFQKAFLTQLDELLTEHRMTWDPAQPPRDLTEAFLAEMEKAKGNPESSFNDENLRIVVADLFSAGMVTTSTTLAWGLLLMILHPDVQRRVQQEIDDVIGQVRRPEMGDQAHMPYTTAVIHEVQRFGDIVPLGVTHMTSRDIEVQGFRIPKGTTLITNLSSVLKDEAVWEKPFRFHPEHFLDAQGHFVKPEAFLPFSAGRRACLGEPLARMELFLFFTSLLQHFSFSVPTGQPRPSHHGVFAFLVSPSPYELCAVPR
- Test method notes: Recombinant CYP inhibition, CYP2D6
- Assay type: in vitro ADME
- Assay conditions: recombinant CYP2D6, probe dextromethorphan, substrate dextromethorphan, recombinant enzyme, read-out: % Inhibition at 10 μM, CYP 2D6
Where a name gives a salt, the structure may show the parent alone.
Test readout: inhibition at 20 min, 10 µM
Units required after the number.

Q: Item NC[C@H]1C[C@@H]1c1cc(F)ccc1OCC1CC1 [(+)-12, Hydrochloride] : provide inhibition at 20 min, 10 µM
Result: 27%

----------
- Tested target: CYP2C9 (Homo sapiens, UniProt P11712)
- Sequence (P11712 whole entry): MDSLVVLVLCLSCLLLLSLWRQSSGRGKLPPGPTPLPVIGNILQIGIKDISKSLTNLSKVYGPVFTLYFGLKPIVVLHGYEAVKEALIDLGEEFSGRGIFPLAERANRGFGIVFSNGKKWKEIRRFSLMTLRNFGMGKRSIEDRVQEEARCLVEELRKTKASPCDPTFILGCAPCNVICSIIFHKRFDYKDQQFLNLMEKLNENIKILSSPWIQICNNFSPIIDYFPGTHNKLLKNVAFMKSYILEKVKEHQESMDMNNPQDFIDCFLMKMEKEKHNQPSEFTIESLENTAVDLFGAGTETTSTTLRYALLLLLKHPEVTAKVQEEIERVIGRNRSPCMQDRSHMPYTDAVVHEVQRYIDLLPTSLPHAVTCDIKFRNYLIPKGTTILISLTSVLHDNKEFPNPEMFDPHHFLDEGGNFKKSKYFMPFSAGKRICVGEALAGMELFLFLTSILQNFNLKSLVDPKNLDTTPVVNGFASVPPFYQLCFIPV
- Test method notes: Recombinant CYP inhibition, CYP2C9
- Format: in vitro ADME
- Assay conditions: recombinant CYP2C9, probe tolbutamide, substrate tolbutamide, recombinant enzyme, read-out: % Inhibition at 10 μM, CYP 2C9
Structures can show the parent of a compound that is named as a salt.
Answer each item with its documented inhibition at 20 min, 10 µM.
Give bare numbers, in %.

>  <Compound>
NC[C@H]1C[C@@H]1c1cc(F)ccc1OCC1CC1 [(+)-12, Hydrochloride]

>  <inhibition at 20 min, 10 µM, %>
19.6

$$$$

For the next question, use this compound.
Q: Write down measured inhibition at 20 min, 10 µM (CYP2C9 (Homo sapiens, UniProt P11712)) for this compound. Nc1ccc(S(=O)(=O)Nc2ccnn2-c2ccccc2)cc1 [sulfaphenazole, reference compound]
Result: 94.7

----------
- Tested target: 5-HT(2A) receptor (Homo sapiens, UniProt P28223)
- Test method notes: cell-based
- Assay type: cell-based
- Parameters: expressed in transfected cells
- Assay conditions: Table 2, second section; percent of maximal activation by 5-HT; activation at 10 μM for compounds without EC50 value
Counter-ions that a name gives are not always drawn.
Test readout: 5-HT2A % Max ± SEM

>  <Compound>
NCC1CC1c1cc(O)ccc1OCC1CC1 (single isomer, unassigned; (-)) [(−)-18]

>  <Tested target>
5-HT(2A) receptor (Homo sapiens, UniProt P28223)

>  <Value reported>
3% ±

$$$$
>  <Compound>
NC[C@H]1C[C@@H]1c1cc(O)ccc1OCC1CC1 [(+)-18, Hydrochloride]

>  <Tested target>
5-HT(2A) receptor (Homo sapiens, UniProt P28223)

>  <Value reported>
18% ±

$$$$
>  <Compound>
NCCc1c[nH]c2ccc(O)cc12 [Compound 5-HT, 5-Hydroxytryptamine, reference compound]

>  <Tested target>
5-HT(2A) receptor (Homo sapiens, UniProt P28223)

>  <Value reported>
100% ±

$$$$
>  <Compound>
C[C@H]1CNCCc2ccc(Cl)cc21 [2 (Lorcaserin), Lorcaserin, reference compound]

>  <Tested target>
5-HT(2A) receptor (Homo sapiens, UniProt P28223)

>  <Value reported>
31% ±

$$$$

For the next question, use this compound.
Q: Item NC[C@H]1C[C@@H]1c1cc(F)ccc1OCC1CC1 [(+)-12, Hydrochloride] : provide 5-HT2A % Max ± SEM
Result: 29% ±
